# inhibition at 20 µM annotations
# TARGET_OR_TEST_SYSTEM: Rac-1 (Homo sapiens (Human))
# MEASUREMENT_NOTES: Rac inhibition assay (labeled GTP)
# Assay type: binding
# CONDITION_CONTEXT: read-out: Rac-1 % Inh.

| COMPOUND | inhibition at 20 µM |
| --- | --- |
| COc1cnc(CNC(=O)c2sc3c(O)nc(-c4ccccn4)nc3c2C)[nH]c1=O [drawing 3842] | 0% |
| COc1ccnc(-c2nc(O)c3c(Cl)csc3n2)c1 [drawing 3689] | 76 to 100% |
| COC(=O)c1nc(-c2ccccn2)nc(O)c1O [drawing 3865] | 76 to 100% |
| O=C(CCc1nn[nH]n1)Nc1nc(-c2ccccn2)nc2sccc12 [drawing 3762] | 76 to 100% |
| Cc1sc2c(O)nc(-c3ccccn3)nc2c1-c1cccnc1 [drawing 3786] | 51 to 75% |
| OCC1(c2ccc(-c3nc(-c4ccccn4)nc(-c4ccc(C5(CO)CC5)cc4)c3Oc3ccccc3)cc2)CC1 [drawing 3850] | 25 to 50% |
| N#Cc1cccc(-c2csc3c(O)nc(-c4ccccn4)nc23)c1 [drawing 3822] | 1 to 25% |
| OCC1(c2ccc(-c3csc4c(O)nc(-c5ccccn5)nc34)cc2)CC1 [drawing 3758] | 76 to 100% |
| COc1cccc(C2CN(C(=O)c3csc4c(O)nc(-c5ccccn5)nc34)CCN2)c1 (stereo not drawn) [drawing 3662] | 76 to 100% |
| Cc1sc2c(O)nc(-c3ccccn3)nc2c1C(=O)N1CCN(c2ccccc2)CC1C (stereo not drawn) [drawing 3828] | 51 to 75% |
| Cc1sc2c(O)nc(-c3nccn3C)nc2c1-c1ccccc1 [drawing 3912] | 25 to 50% |
| Nc1nc(O)c2sc(-c3cccc(C(=O)NC4CCNC4=O)c3)cc2n1 (stereo not drawn) [drawing 3860] | 1 to 25% |
| Cn1ccnc1-c1nc(O)c2scc(-c3cccc(C(F)(F)F)c3)c2n1 [drawing 3916] | 51 to 75% |
| COc1ccnc(-c2nc(O)c3c(C(F)(F)F)csc3n2)c1 [drawing 3705] | 51 to 75% |
| O=C(NCCc1nnn[nH]1)c1csc2nc(-c3ccccn3)nc(N3CCOCC3)c12 [drawing 3675] | 76 to 100% |
| COCCNc1nc(-c2nccn2C)nc2sc(C3CCOCC3)c(-c3ccccc3)c12 [drawing 3908] | 76 to 100% |
| COc1cccc(-c2csc3c(O)nc(-c4ccccn4)nc23)c1 [drawing 3744] | 51 to 75% |
| COCCNc1nc(-c2nccn2C)nc2sc(-c3ccccc3)c(-c3ccc(OC)cc3)c12 [drawing 3907] | 51 to 75% |
